Taken from patent US20210292423A1.

Target: T1, human CD3ε and CD3δ co-expressed on HEK293F cells (human, UniProt P07766 23-207; P04234 22-171)
T1 construct: also called huCD3ε/δ (transfected cells); huCD3e + huCD3d
T1 sequence (P07766 23-207 limits assumed, stated change not applied, chain 1 of 2): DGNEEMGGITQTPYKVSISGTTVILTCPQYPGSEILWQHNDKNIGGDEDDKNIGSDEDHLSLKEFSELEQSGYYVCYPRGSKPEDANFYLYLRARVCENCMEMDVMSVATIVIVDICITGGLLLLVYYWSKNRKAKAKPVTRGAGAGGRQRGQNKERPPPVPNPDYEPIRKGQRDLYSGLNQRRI
T1 sequence (P04234 22-171 limits assumed, stated change not applied, chain 2 of 2): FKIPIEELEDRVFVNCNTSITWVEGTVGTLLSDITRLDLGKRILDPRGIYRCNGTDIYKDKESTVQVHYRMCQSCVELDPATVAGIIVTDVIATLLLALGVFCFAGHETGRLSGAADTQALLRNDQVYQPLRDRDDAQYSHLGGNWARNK
Assay: flow cytometry, transfected HEK293F

binder | % antibody positive transfected cells (%)
18G9-H11 Fab (Fab, V domains shown) VH: EVQLVETGGSLVQPGKSLKLTCATSGFTFSNAWIQWVRQSPEKQLEWVAQIKAKSNNYATYYAESVKGRFTISRDDSKSSVYLQMNSLKEEDTALYYCTWRHYYSSHTMDAWGQGTLVTVSS VL: DVVMTQTPVSLSVSLGGQVSISCRSSQSLVHNNGNTYLSWYLQKPGQSPQLLIYKVSNRFSGISDRFSGSGSGTDFTLKISRVAPTDLGVYYCGQGSQYPFTFGAGTKLELK | 97
10E6-G6 Fab (Fab, V domains shown) VH: EVQLVETGGGLVQSGKSLKLTCATSGFTVTNAWMHWVRQSPEKQLEWVAQIKAKSNNYETYYAESVKGRFTISRDDSKSSVYLQMNSLKEEDTAIYYCRGTQYGYNPFDYWGQGVMVTVSS VL: DVVMTQSPVSLSVSLGGQVSISCRSSQSLVHNNGYTYLSWYLQKPGQSPQVFIYKVSNRFSGISDRFSGSGSGTDFTLKISRIEPDDLGVYYCGQGTHYPFTFGSGTKLEIK | 93.3
20G6-F3 Fab (Fab, V domains shown, also called BDW-20G6-F3) VH: EVQLVETGGSLVQPGKSLKLTCATSGFTFTKAWMHWVRQSPEKQLEWVAQIKDKSNSYATYYAESVKGRFTISRDDSKSTIYLQMNSLKEEDTAIYYCRGVYYALSPFDYWGQGVMVTVSS VL: DVVMTQTPVSLSVSLGGQVSISCRSSQSLVHNNGNTYLSWYLQKPGQSPQSLIYKVSNRFSGFSDRFSGSGSGTDFTLKISRVDPDDLGVYYCGQGTQYPFTFGSGTKLEIKR | 67.4
